# test_target: Cell division control protein 42 homolog (Homo sapiens) (UniProt P60953)
# Sequence (P60953 whole entry, looked up): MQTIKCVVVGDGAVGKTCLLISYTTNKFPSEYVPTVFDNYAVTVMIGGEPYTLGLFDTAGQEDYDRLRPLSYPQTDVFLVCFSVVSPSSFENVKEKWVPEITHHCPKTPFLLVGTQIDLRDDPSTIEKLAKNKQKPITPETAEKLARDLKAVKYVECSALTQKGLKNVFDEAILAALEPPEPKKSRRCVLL
# protocol_details: inhibition of fluorescent GTP binding to wildtype Cdc42 – biochemical, multiplex bead flow cytometry, Bodipy-FL-GTP, dose response (AID 1334)
# experimental_context: bead-based flow cytometry, Bodipy-FL-GTP binding to GST-Cdc42; at 100 µM (top of the series) unless noted
Measured potencies and affinities stand elsewhere.
quantity_kind: fluorescence, percent of control (lower = inhibition) (%)
Answers are plain numbers, in %.

Worked cases, answers included:
- molecule: "COc1ccc(O)c(CN2CCN(CCc3ccccc3)C(CCO)C2)c1 (stereo not drawn)"
  experimental_result: 37.3
- molecule: "COc1cccc(Nc2c(F)c(F)c(F)c(F)c2C(=O)O)c1"
  experimental_result: 53.4
- molecule: "CC(C)CCn1c(CN2CCN(Cc3ccccc3)CC2)nc2c1c(=O)n(C)c(=O)n2C"
  experimental_result: 89.2

Field: fluorescence, percent of control (lower = inhibition). Fill in for each record below.
1. Cc1ccc(S(=O)(=O)c2cc3c(=O)n4ccccc4nc3n(C)c2=N)cc1
2. O=[N+]([O-])c1ccc2c(c1)c(-c1ccccc1)nc1nncn12
3. CCOc1nnc(C)c2c(C)n(-c3cccc(OC)c3)nc12
4. COc1ccc(-c2nnc(SCC(=O)c3cccs3)o2)cc1
5. Cc1ccc(/C=C(\CCC(=O)O)c2nc3ccccc3s2)cc1[N+](=O)[O-]
6. O=C(O)c1ccc(Nc2nc(-c3cc4ccccc4oc3=O)cs2)cc1O

Result:
31.2
31.3
55.9
94.6
24.9
29.2

Field: fluorescence, percent of control (lower = inhibition). Fill in for each record below.
1. C=CCN1C(=NC(=O)CCCC(=O)O)SC2CS(=O)(=O)CC21 (stereo not drawn)
2. COc1ccc(OCc2c(C)cccc2C)c(C(=O)O)c1
3. O=S(=O)(Nc1cc(Sc2ncn[nH]2)c(O)c2ccccc12)c1ccccc1
4. CCOc1cccc(-c2nn3c(-c4ccco4)nnc3s2)c1
5. O=C(COc1ccccc1-c1ccccc1)N/N=C/c1ccncc1

Result:
1. 38.3
2. 58.3
3. 31.4
4. 32.7
5. 33.3

Field: fluorescence, percent of control (lower = inhibition). Fill in for each record below.
1. Cc1ccccc1/C=C1\SC(=S)N(/N=C/c2cc([N+](=O)[O-])ccc2O)C1=O
2. CN1C(=O)N(C)c2ccc(C=O)c3cccc1c23
3. CSc1nc(Cc2ccccc2)cc(=O)[nH]1
4. Cc1ccc2nc(CSc3nc(C)cc(C)c3C#N)[nH]c2c1
5. CCCNC(=O)C(=O)NCc1ccccn1
6. Cc1ccc(S(=O)(=O)N2CC3(C)CN(S(=O)(=O)c4ccc(C)cc4)CC(C)(C2)C3O)cc1 (stereo not drawn)

Result:
1: 34.1; 2: 36.5; 3: 36.3; 4: 35.3; 5: 41.2; 6: 50

Field: fluorescence, percent of control (lower = inhibition). Fill in for each record below.
1. O=C(O)c1ccccc1OCc1ccccc1Br
2. CC(=O)Nc1ccc(N=Cc2c(O)c(C(=O)Nc3ccccc3)cc3ccccc23)cc1
3. c1ccc2[nH]c3cc4ncnc4cc3nc2c1

Result:
1. 84.6
2. 85.4
3. 31.7

* * *

# protocol_details: Nile Red efflux blockade in pump-expressing yeast – validation compound set, multiplex, phenotypic, pilot screen (AID 588506);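 further: Nile Red retained in cells so higher fluorescence means more efflux inhibition; 0 = negative control wells and 1 = enniatin B 25 µM full block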
# experimental_context: S. cerevisiae pump-expressing triplex, Nile Red efflux flow cytometry; at 10 µM; stronger effect = higher value; the pumps come from Candida albicans
quantity_kind: efflux inhibition (fraction of control)
Give bare numbers.

Worked cases, answers included:
- compound: "Oc1ccccc1OCCOc1ccccc1OCCOc1ccccc1O"
  efflux inhibition (fraction of control): -0.04
- compound: "COc1ccc(CC(=O)Nc2cccc(C(=O)Nc3ccccc3C(=O)O)c2)cc1OC"
  efflux inhibition (fraction of control): 0
- compound: "CCOC(=O)C1C(=O)OC2(CCOC(C)(C)C2)C1C(=O)OCC (stereo not drawn)"
  efflux inhibition (fraction of control): 0.15
- compound: "O=C(COc1ccccc1)Nc1ccc2c(c1)C(=O)N(CC1CCCO1)C2=O (stereo not drawn)"
  efflux inhibition (fraction of control): 0.47
- compound: "CC12CCC(C(=O)N3CCc4ccccc43)(CC1=O)C2(C)C (stereo not drawn)"
  efflux inhibition (fraction of control): -0.24
- compound: "CC(=O)N(CCC1(c2ccc(C)cc2)CCOC(C(C)C)C1)Cc1ccco1 (stereo not drawn)"
  efflux inhibition (fraction of control): 0.05

Field: efflux inhibition (fraction of control). Fill in for each record below.
1. CN(C)CCCN1c2ccccc2Sc2ccccc21
2. O=C(CN1CCN(Cc2ccccc2)CC1)N1CCCc2c1c(=O)oc1ccc(O)cc21
3. N/C(=N\OC(=O)c1cccc(Br)c1)c1ccncc1

Result:
[-0.09, -0.31, -0.115]

* * *

For each of the compounds below, state its response.
# test_target: Beta-2 adrenergic receptor (Homo sapiens) (UniProt P07550)
# Sequence (P07550 whole entry, looked up): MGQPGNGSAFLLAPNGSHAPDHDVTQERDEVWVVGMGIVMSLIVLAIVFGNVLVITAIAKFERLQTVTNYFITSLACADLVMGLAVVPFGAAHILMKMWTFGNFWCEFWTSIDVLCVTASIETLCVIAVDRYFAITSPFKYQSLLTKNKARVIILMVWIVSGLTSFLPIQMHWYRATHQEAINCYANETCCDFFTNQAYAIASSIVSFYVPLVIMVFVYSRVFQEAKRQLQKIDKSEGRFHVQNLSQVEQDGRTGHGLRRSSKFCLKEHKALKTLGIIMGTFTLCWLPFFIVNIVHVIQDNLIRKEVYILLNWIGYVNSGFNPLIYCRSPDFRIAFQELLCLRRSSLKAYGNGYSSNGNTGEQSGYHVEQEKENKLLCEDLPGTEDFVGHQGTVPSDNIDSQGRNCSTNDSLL
# protocol_details: agonist-induced loss of surface beta2AR – cell-based, FAP fluorogen, flow cytometry, validation set, pilot screen (AID 504459);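 further: agonist-driven loss of surface beta2AR via internalization measured by FAP dye flow cytometry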
# experimental_context: Am2.2-beta2AR cells, at 10 µM, stronger effect = higher value
Answers are plain numbers, in %.

Worked cases, answers included:
- compound: "O=C(O)[C@H](Cc1ccccc1)NC(=O)N1CCC(Cc2ccccc2)CC1"
  test_target: "Beta-2 adrenergic receptor (Homo sapiens) (UniProt P07550)"
  readout_unit: "%"
  experimental_result: 9.92
- compound: "CC(=O)[C@@]1(O)CC[C@H]2[C@@H]3C[C@H](C)C4=CC(=O)C=C[C@]4(C)[C@@]3(F)[C@@H](O)C[C@@]21C"
  test_target: "Beta-2 adrenergic receptor (Homo sapiens) (UniProt P07550)"
  readout_unit: "%"
  experimental_result: -0.53
- compound: "CC(C)CN1CCN(Cc2ccc3ncccc3c2)CC1CCO (stereo unspecified)"
  test_target: "Beta-2 adrenergic receptor (Homo sapiens) (UniProt P07550)"
  readout_unit: "%"
  experimental_result: -8.31
- compound: "O=C(O)c1cc2cc(F)ccc2[nH]1"
  test_target: "Beta-2 adrenergic receptor (Homo sapiens) (UniProt P07550)"
  readout_unit: "%"
  experimental_result: 0.15
- compound: "Cc1ccc(-n2cc(CNCCN3CCOC3=O)c(-c3ccc(F)cc3)n2)cc1"
  test_target: "Beta-2 adrenergic receptor (Homo sapiens) (UniProt P07550)"
  readout_unit: "%"
  experimental_result: -24.7

Now consider the entry below.
Query: Identify measured response associated with `CCOC(=O)n1c(=O)oc2ccccc21`
Result: -19.8

* * *

# protocol_details: reduced mouse 2C T cell binding to pMHC/ICAM-1 vesicles – MLPCN validation set, flow cytometry, LFA-1/ICAM-1 modulator project, pilot screen (AID 2523)
# experimental_context: 2C mouse CD8+ T cells, at 7 µM, stronger effect = lower value; measured here: CD8+/vesicle+ event percentage
Field: label. Allowed values: 1 (double positive events < 60%) or 0 (double positive events >= 60%).

Some solved entries appear below for comparison.
- molecule: "C=CCNC(=O)c1ccc(-c2cccc([N+](=O)[O-])c2)o1"
  class_label: 1
- molecule: "CC(C)c1ccc(NC(=O)CNS(=O)(=O)c2ccc(F)cc2)cc1"
  class_label: 1
- molecule: "COc1ccc(CNC(=O)C2CCCN2C)cc1OC (configuration not stated)"
  class_label: 0

Shifting focus to the molecule that follows.
Query: Check if double positive events falls below 60% for CC(=O)NC(Cc1ccccc1)C(=O)OCC(=O)c1ccccc1 (configuration not stated) .
Result: 0

* * *

# test_target: GTPase HRas (Homo sapiens) (UniProt P01112)
# Sequence (P01112 whole entry, looked up): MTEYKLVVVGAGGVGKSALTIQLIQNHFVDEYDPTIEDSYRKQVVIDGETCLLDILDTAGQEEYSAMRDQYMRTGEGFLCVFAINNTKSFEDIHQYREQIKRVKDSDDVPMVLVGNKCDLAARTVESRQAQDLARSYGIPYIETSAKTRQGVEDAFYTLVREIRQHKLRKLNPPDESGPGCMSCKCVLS
# protocol_details: Ras wt fluorescent GTP loading blockade – biochemical, wildtype, multiplex bead flow cytometry, dose response (AID 1335)
# experimental_context: bead-based flow cytometry, Bodipy-GTP binding to GST-Ras; at 100 µM (top of the series) unless noted
Field: label. Allowed values: YES (GTP binding, percent of control < 70%) or NO (GTP binding, percent of control >= 70%).

Some solved entries appear below for comparison.
- compound: "Cc1ccc(C(=O)Nn2c(O)c(C=C3N=c4ccccc4=N3)sc2=S)cc1"
  class_label: "YES"
- compound: "COc1ccc2nc(/C(C#N)=C\\c3ccc(C(=O)O)cc3)[nH]c2c1"
  class_label: "NO"
- compound: "O=C(Cn1cnc2c(nnn2Cc2ccccc2F)c1=O)NCC1CCCO1 (stereo unspecified)"
  class_label: "YES"
- compound: "Cc1ccc(Nc2cc(C(=O)O)c3ccccc3n2)cc1C"
  class_label: "NO"
- compound: "N#CCc1c(C#N)c(N)nc(N2CCN(C=O)CC2)c1C#N"
  class_label: "NO"

Shifting focus to the compound that follows.
Query: Check if GTP binding, percent of control falls below 70% for `N#CC(C#N)=C(Nc1ccc(F)cc1)SCc1cccc(Br)c1` .
Result: YES

* * *

# test_target: AP-2 complex subunit beta (Homo sapiens) (UniProt P63010)
# Sequence (P63010 whole entry, looked up, one chain of several): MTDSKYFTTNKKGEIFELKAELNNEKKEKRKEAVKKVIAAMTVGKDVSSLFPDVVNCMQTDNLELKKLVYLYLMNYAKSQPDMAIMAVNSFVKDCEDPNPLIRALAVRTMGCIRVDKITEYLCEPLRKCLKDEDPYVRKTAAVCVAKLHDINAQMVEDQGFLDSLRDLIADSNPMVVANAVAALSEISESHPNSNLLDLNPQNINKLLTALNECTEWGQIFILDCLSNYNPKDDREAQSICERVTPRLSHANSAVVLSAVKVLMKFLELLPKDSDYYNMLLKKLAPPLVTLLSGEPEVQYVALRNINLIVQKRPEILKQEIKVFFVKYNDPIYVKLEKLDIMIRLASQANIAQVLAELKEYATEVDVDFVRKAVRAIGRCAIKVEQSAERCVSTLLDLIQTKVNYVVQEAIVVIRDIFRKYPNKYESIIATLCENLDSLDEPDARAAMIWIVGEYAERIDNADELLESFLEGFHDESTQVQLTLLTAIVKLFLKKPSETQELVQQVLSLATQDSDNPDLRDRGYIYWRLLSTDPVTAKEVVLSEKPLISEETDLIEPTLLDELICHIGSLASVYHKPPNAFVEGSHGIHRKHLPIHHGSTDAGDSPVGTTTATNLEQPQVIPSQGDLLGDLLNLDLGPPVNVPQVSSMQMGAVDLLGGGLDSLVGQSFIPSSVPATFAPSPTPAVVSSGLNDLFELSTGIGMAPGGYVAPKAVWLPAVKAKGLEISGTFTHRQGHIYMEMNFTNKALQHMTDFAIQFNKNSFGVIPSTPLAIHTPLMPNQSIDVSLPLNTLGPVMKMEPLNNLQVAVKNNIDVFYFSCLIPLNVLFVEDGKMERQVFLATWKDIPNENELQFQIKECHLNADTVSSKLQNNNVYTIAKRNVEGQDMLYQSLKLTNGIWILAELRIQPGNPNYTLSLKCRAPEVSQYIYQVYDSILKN
# protocol_details: beta-arrestin/AP2 interaction blockers – biochemical, validation set, GST-AP2 beads, flow cytometry, pilot screen (AID 504541);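 further: AP2 carries R879A mutation and is captured from E. coli lysate; bead-bound FITC arrestin peptide fluorescence measuring arrestin peptide binding to AP2; 0% = DMSO wells and 100% = excess unlabeled arrestin peptide control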
# experimental_context: FITC arrestin peptide, at 10 µM, stronger effect = higher value, AP2 beta2 appendage fragment, R879A mutant
For each of the molecules below, state its inhibition.
Numbers only, in %.

- molecule: "COc1ccc2c(c1)c(=O)oc1cc3occ(C(C)(C)C)c3cc12"
  inhibition / %: 42.4

Field: inhibition. Fill in for each record below.
1. COCc1cc(=O)[nH]c(/N=C(\N)Nc2ccc(Oc3ccccc3)cc2)n1
2. Cc1ccc(C(=O)O)cc1NC(=O)c1cccs1
3. O=C(CCC1CCCN(C(=O)c2ccsc2)C1)NCc1ccc(F)c(F)c1 (configuration not stated)
4. CC(=O)C1=C(Nc2ccc(C)cc2)CC(C)(O)C(C(C)=O)C1c1ccco1 (configuration not stated)
5. CCCC(=O)Nc1ncnc2c1ncn2[C@@H]1O[C@@H]2COP(=O)(O)O[C@H]2[C@H]1OC(=O)CCC
6. COCCn1c(SCCOc2ccccc2)nc2ccccc2c1=O
7. CC(=O)NC(Cc1c[nH]c2ccccc12)C(=O)N/N=C/c1ccccc1 (configuration not stated)
8. CCOC(=O)C1C(=O)OC(C)(C)C1C(C)C(=O)c1ccc(C)cc1 (configuration not stated)

Result:
-1.38
-1.98
-6.99
36.9
-3.95
-3.51
60.7
-19

Field: inhibition. Fill in for each record below.
1. CN1CCN2c3ccccc3Cc3ccccc3C2C1 (configuration not stated)
2. CC12CCC(C(=O)N3CCc4ccccc43)(CC1=O)C2(C)C (configuration not stated)
3. C[C@@H]1CCC[C@H](C)N1NC(=O)c1ccc(Cl)c(S(N)(=O)=O)c1
4. CCc1cc2c(=O)c(-c3ccc4c(c3)OCCO4)coc2c(CN2CCCCC2C)c1O (configuration not stated)
5. COc1ccc(CCn2c(C)nc3c(c(=O)c4ccccc4n3C)c2=O)cc1
6. CC(=O)c1cc2c(cc1NC(=O)c1ccco1)OCCO2

Result:
36.1
5.6
2.8
9.88
7.96
-8.68
